# TESTED ON: recombinant human PAI-1 (Homo sapiens, UniProt P05121)
# Construct: purchased Molecular Innovations, Inc
# Sequence (P05121 24-402): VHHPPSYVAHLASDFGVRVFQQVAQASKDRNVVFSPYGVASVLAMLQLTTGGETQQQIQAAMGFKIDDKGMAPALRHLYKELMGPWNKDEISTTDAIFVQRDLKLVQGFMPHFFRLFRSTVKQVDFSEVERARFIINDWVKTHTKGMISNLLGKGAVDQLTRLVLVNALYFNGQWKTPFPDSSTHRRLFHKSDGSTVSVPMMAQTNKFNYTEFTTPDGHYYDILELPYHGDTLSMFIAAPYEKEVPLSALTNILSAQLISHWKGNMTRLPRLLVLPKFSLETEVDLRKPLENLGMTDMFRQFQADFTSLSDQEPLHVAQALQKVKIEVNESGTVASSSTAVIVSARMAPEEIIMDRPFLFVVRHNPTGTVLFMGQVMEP
# ASSAY SUMMARY: Test Example 1: human PAI-1 inhibitory activity (tPA fluorogenic substrate, pH 7.5 Tris buffer)
# Type: biochemical
# EXPERIMENTAL PARAMETERS: Compound Concentration 10 μM; Tris buffer
Mark condition met for reported Inhibition Rate of PAI-1 Activity (%) of 70% or greater; mark condition not met for anything smaller.

Does the compound CN(C)c1ccc(N(Cc2ccc(C(C)(C)C)cc2)C(=O)C(=O)O)cc1-c1ccc(OC(F)(F)F)cc1 have recorded Inhibition Rate of PAI-1 Activity (%) that is 70% or more?
condition met

Does the compound CC(C)(C)c1ccc(CN(C(=O)C(=O)O)c2c(Cl)cc(-c3ccc(OC(F)(F)F)cc3)cc2Cl)cc1 have recorded Inhibition Rate of PAI-1 Activity (%) that is 70% or more?
condition met

Does the compound CN(C(=O)C(=O)O)c1cc(-c2ccc(OC(F)(F)F)cc2)ccc1OCc1ccc(C(C)(C)C)cc1 have recorded Inhibition Rate of PAI-1 Activity (%) that is 70% or more?
condition not met

Does the compound CC(C)(C)c1ccc(COc2cc(/C=C/C(=O)O)cc(Oc3ccc(OC(F)(F)F)cc3)c2)cc1 have recorded Inhibition Rate of PAI-1 Activity (%) that is 70% or more?
condition not met

Does the compound CN(C(=O)C(=O)O)c1ccc(OCc2ccc(OC(F)(F)F)cc2)c(OCc2ccc(OC(F)(F)F)cc2)c1 have recorded Inhibition Rate of PAI-1 Activity (%) that is 70% or more?
condition not met

Does the compound COc1ccc(COc2ccc(-c3ccc(OC(F)(F)F)cc3)cc2CCC(=O)O)cc1 have recorded Inhibition Rate of PAI-1 Activity (%) that is 70% or more?
condition not met

Does the compound O=C(O)C(=O)N(Cc1ccc(-c2ccccc2)cc1)c1ccc(-c2ccc(OC(F)(F)F)cc2)cc1 have recorded Inhibition Rate of PAI-1 Activity (%) that is 70% or more?
condition not met

Does the compound Cc1cc(N(C)C)c(-c2ccc(OC(F)(F)F)cc2)cc1N(CCCCc1ccccc1)C(=O)C(=O)O have recorded Inhibition Rate of PAI-1 Activity (%) that is 70% or more?
condition met

Does the compound CC(C)(C)CN(C(=O)C(=O)O)c1ccc(-c2ccc(OC(F)(F)F)cc2)cc1 have recorded Inhibition Rate of PAI-1 Activity (%) that is 70% or more?
condition not met

Does the compound CC(C)(C)c1ccc(-c2ccc(OCc3ccccc3)c(CCC(=O)O)c2)cc1 have recorded Inhibition Rate of PAI-1 Activity (%) that is 70% or more?
condition not met

====

# TESTED ON: recombinant human PAI-1 (Homo sapiens)
# Construct: purchased Molecular Innovations, Inc
# ASSAY SUMMARY: Test Example 2: human PAI-1 inhibitory activity (tPA fluorogenic substrate, pH 7.4 HEPES buffer)
# Type: biochemical
# EXPERIMENTAL PARAMETERS: human PAI-1; compound concentration 0.1 μM
Provide the reported Inhibition Rate of PAI-1 Activity (%) of each item.
The reply should contain only the number, in %.

// lookup Inhibition Rate of PAI-1 Activity (%) for CCCCN(CC(=O)O)c1cc(-c2ccc(OC(F)(F)F)cc2)ccc1Oc1ccc(C(C)(C)C)cc1
18

// lookup Inhibition Rate of PAI-1 Activity (%) for CCCCCN(C(=O)C(=O)O)c1cc(-c2ccc(OC(F)(F)F)cc2)ccc1OCCCOc1ccccc1
15

// lookup Inhibition Rate of PAI-1 Activity (%) for CC(C)(C)c1ccc(Sc2cc(-c3ccc(OC(F)(F)F)cc3)ccc2C(=O)C(=O)O)cc1
0

// lookup Inhibition Rate of PAI-1 Activity (%) for Cc1cc(C)cc(-c2ccc(CCC(=O)O)c(Oc3ccc(C(C)(C)C)cc3)c2)c1
1

// lookup Inhibition Rate of PAI-1 Activity (%) for CC(C)(C)c1ccc(Oc2ccc(-c3ccc(OC(F)(F)F)cc3)cc2N(CCCCc2ccccc2)C(=O)C(=O)O)cc1
2
